Each recorded value in this set is attributed to ChEMBL document CHEMBL1131735.

# assayedTarget: UniProt:P31421
# method: Inhibition of 1S,3R-ACPD (10 uM) -stimulated GTP gamma 35S binding on rat Metabotropic glutamate receptor 2 transfected in CHO cells
# Assay type: cell-based
observationType: Ki

Below, 3 molecules whose answers are already recorded.
{"molecule": "CC1=C(C(=O)OCCN(C)C)C(c2ccccc2Cl)N2C=C(c3c(Cl)cccc3Cl)SC2=N1 (stereo not given)", "assayedTarget": "UniProt:P31421", "Ki": "2 µM"}
{"molecule": "COc1ccccc1C1C(C(=O)NCCN(C)C)=C(C)N=C2SC(c3c(Cl)cccc3Cl)=CN21 (stereo not given)", "assayedTarget": "UniProt:P31421", "Ki": "> 10 µM"}
{"molecule": "COc1ccccc1C1C(C(=O)OCCN(C)C)=C(C(C)C)N=C2SC(c3c(Cl)cccc3Cl)=CN21 (stereo not given)", "assayedTarget": "UniProt:P31421", "Ki": "4 µM"}

Query block: Please list Ki recorded for the molecule CCOC(=O)C1=C(C)N=C2SC(c3c(Cl)cccc3Cl)=CN2C1c1ccccc1OC (stereo not given)
Result block: 4 µM

Query block: Please list Ki recorded for the molecule COc1ccccc1C1C(C(=O)OCCN(C)C)=C(C)N=C2SC(c3ccc(Cl)cc3)=CN21 (stereo not given)
Result block: 4 µM

----------
# assayedTarget: Metabotropic glutamate receptor 2 (Rattus norvegicus, UniProt P31421)
# Sequence (P31421 whole entry): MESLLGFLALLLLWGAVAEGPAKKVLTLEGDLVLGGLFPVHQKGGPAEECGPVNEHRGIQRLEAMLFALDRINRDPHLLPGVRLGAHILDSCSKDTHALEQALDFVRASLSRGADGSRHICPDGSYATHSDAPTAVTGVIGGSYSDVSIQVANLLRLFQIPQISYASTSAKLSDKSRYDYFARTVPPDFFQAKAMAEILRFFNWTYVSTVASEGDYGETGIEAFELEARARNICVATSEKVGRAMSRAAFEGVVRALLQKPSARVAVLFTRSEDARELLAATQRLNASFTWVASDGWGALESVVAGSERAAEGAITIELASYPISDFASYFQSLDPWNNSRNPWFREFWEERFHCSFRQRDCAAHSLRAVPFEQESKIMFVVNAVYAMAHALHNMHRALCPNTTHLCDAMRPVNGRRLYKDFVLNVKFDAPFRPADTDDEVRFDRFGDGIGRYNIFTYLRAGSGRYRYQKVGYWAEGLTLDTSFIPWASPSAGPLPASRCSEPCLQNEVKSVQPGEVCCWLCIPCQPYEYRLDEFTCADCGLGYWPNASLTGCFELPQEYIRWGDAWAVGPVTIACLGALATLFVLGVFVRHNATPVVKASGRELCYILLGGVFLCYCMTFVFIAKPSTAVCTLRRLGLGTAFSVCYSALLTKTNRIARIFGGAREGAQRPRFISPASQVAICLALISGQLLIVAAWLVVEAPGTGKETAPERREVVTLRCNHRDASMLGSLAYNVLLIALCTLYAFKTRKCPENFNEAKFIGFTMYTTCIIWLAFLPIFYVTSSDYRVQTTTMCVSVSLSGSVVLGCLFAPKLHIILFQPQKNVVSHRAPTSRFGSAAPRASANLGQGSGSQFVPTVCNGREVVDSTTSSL
# method: Inhibition of 1S,3R-ACPD (10 uM) -stimulated GTP gamma 35S binding on rat Metabotropic glutamate receptor 2 transfected in CHO cells
# Format: cell-based
Note to self: use condition met only for Ki readings below 2000 nM; a reading exactly at 2000 nM still gets condition not met.

{"molecule": "CCC1=C(C(=O)OCCN(C)C)C(c2ccccc2OC)N2C=C(c3c(Cl)cccc3Cl)SC2=N1 (stereo unspecified)", "assignedCategory": "condition met"}
{"molecule": "COc1ccccc1C1C(C(=O)OCCCN(C)C)=C(C)N=C2SC(c3c(Cl)cccc3Cl)=CN21 (stereo unspecified)", "assignedCategory": "condition not met"}
{"molecule": "COc1ccccc1C1C(C(=O)OCCN(C)C)=C(C)N=C2SC(c3c(Cl)cccc3Cl)=CN21 (stereo unspecified)", "assignedCategory": "condition met"}
{"molecule": "CCOc1ccccc1C1C(C(=O)OCCN(C)C)=C(C)N=C2SC(c3c(Cl)cccc3Cl)=CN21 (stereo unspecified)", "assignedCategory": "condition not met"}
{"molecule": "CC1=C(C(=O)OCCN(C)C)C(c2ccccc2C)N2C=C(c3c(Cl)cccc3Cl)SC2=N1 (stereo unspecified)", "assignedCategory": "condition not met"}
{"molecule": "COc1ccccc1C1C(C(=O)OCCN(C)C)=C(C)N=C2SC(c3ccc(Cl)cc3Cl)=CN21 (stereo unspecified)", "assignedCategory": "condition met"}
{"molecule": "COc1ccccc1C1C(C(=O)OCCN(C)C)=C(C(=O)c2ccccc2)N=C2SC(c3c(Cl)cccc3Cl)=CN21 (stereo unspecified)", "assignedCategory": "condition not met"}
{"molecule": "COc1ccc(C2C(C(=O)OCCN(C)C)=C(C)N=C3SC(c4c(Cl)cccc4Cl)=CN32)cc1 (stereo unspecified)", "assignedCategory": "condition not met"}

Query block: Take the molecule CC1=C(C(=O)OCCN(C)C)C(c2ccccc2F)N2C=C(c3c(Cl)cccc3Cl)SC2=N1 (stereo unspecified) and say whether its Ki is less than 2000 nM.
Result block: condition not met
